- experiment description: Oral bioavailability in Sprague-Dawley rat at 50 mg/kg administered as single dose via gavage by LC/MS analysis
- Assay type: ADME, organism-based
- experimental setup: in vivo
measurement type: bioavailability (%)

INSERT INTO measurements (smiles_entry, assay_value) VALUES
  ('Cl.Cn1ncc(Cl)c1-c1ccc(C(=O)N[C@@H]2CNCC[C@H]2c2cccc(F)c2)cc1', 50.6);

###

- experiment description: Tmax in Sprague-Dawley rat at 50 mg/kg, po administered as single dose via gavage by LC/MS analysis
- Format: ADME, organism-based
- experimental setup: in vivo
measurement type: Tmax (h)

INSERT INTO assay_data (smiles_entry, assay_value) VALUES
  ('Cl.Cn1ncc(Cl)c1-c1ccc(C(=O)N[C@@H]2CNCC[C@H]2c2cccc(F)c2)cc1', 3.25);

###

- System: RAW264.7
- experiment description: Modulation of M1 polarization in mouse RAW264.7 cells assessed as change in Mcp1 mRNA expression at 300 nM measured after 24 hrs by qRT-PCR analysis relative to control
- Format: functional, cell-based
- experimental setup: RAW264.7, 24 h, read-out: FC
Short version: fold induction at 0.3 µM at least 2 is Fulfilled, less is Not fulfilled.

INSERT INTO measurements (compound, label) VALUES
  ('Cl.Cn1ncc(Cl)c1-c1ccc(C(=O)N[C@@H]2CNCC[C@H]2c2cccc(F)c2)cc1', 'Not fulfilled'),
  ('CC(=O)N[C@@H]1Cc2ccccc2[C@H]1NC(=O)c1cn[nH]c1-c1cccc(F)c1', 'Fulfilled'),
  ('Cc1cc(-c2ccnn2C)cnc1C(=O)N[C@@H]1CNCC[C@H]1c1ccc(Cl)c(C(F)(F)F)c1.Cl', 'Not fulfilled'),
  ('Cc1ccc([C@@H]2CN(C(=O)c3ccc(-c4ccn[nH]4)cc3)C[C@H]2N(C)C)cc1', 'Not fulfilled'),
  ('Cl.Cn1ncc(Cl)c1-c1ccc(C(=O)N[C@@H]2CNCC[C@H]2c2ccc(Cl)c(C(F)(F)F)c2)c(F)c1', 'Fulfilled'),
  ('CCNC(=O)c1ccc(-c2ccnn2C)cc1F', 'Not fulfilled'),
  ('O=C(NCCN1CCCC(c2ccccc2)C1)c1ccc(-c2ccn[nH]2)cc1 (stereo not given)', 'Not fulfilled'),
  ('Cl.Cn1ncc(Br)c1-c1ccc(C(=O)N[C@@H]2CNCC[C@H]2c2cccc(F)c2)nc1', 'Not fulfilled'),
  ('Cn1nccc1-c1ccc(C(=O)N[C@@H]2CNCC[C@H]2c2ccc(F)c(F)c2)cc1.O=C(O)C(O)C(O)C(=O)O', 'Not fulfilled'),
  ('CN(CC1Cc2ccccc2CN1C)C(=O)c1ccc(-c2ccn[nH]2)cc1 (stereo not given)', 'Not fulfilled'),
  ('Cc1cc(C(=O)N[C@@H]2CNCC[C@H]2c2cccc(F)c2)ccc1-c1c(Br)cnn1C.Cl', 'Not fulfilled'),
  ('COc1ccc(NC(=O)c2ccc(-c3ccnn3C)cc2F)cc1', 'Fulfilled'),
  ('O=C(NCC(c1ccccc1F)N1CCCC1)c1ccc(-c2cc[nH]n2)cc1 (stereo not given)', 'Not fulfilled'),
  ('Cc1cc(C(=O)N[C@@H]2CNCC[C@H]2c2cccc(F)c2)ccc1-c1c(Cl)cnn1C.Cl', 'Fulfilled'),
  ('Cc1cc(C(=O)N[C@@H]2CNCC[C@H]2c2ccc(Cl)c(C(F)(F)F)c2)ccc1-c1c(Cl)cnn1C.Cl', 'Fulfilled'),
  ('Cl.Cn1ncc(Cl)c1-c1ccc(C(=O)N[C@@H]2CNCC[C@H]2c2ccc(F)c(F)c2)cc1', 'Not fulfilled'),
  ('Cl.Cn1nccc1-c1ccc(C(=O)N[C@H]2CNCC[C@@H]2c2cccc(F)c2)c(F)c1', 'Not fulfilled'),
  ('Cl.O=C(N[C@@H]1CNCC[C@H]1c1cccc(F)c1)c1ccc(F)cc1', 'Not fulfilled'),
  ('Cc1ccc(C(=O)N[C@@H]2CNCC[C@H]2c2cccc(F)c2)o1.Cl', 'Not fulfilled'),
  ('Cn1ncc(Br)c1-c1ccc(C(=O)N[C@@H]2CNCC[C@H]2c2ccc(F)c(F)c2)cc1.O=C(O)C(O)C(O)C(=O)O', 'Not fulfilled');

All values here come from ChEMBL document CHEMBL4339193.
